System under test: histamine H2 receptor (Homo sapiens, UniProt P25021)
Sequence (P25021 whole entry): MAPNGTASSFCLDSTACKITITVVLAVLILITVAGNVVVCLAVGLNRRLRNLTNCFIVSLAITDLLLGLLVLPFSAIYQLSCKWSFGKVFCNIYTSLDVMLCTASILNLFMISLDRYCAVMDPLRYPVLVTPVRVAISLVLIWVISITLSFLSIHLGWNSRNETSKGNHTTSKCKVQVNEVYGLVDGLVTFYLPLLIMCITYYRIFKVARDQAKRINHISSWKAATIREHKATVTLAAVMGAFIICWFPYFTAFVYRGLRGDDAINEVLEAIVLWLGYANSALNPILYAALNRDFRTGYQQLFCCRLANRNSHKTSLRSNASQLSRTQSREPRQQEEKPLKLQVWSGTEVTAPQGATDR
Experimental details: cell-based
Reported endpoint: pEC50
Keep it numeric: pEC50 is minus log10 of the concentration in mol/L.

Exam item: # returns recorded pEC50 (system: histamine H2 receptor (Homo sapiens, UniProt P25021)) for NC(N)=Nc1nc(CSCCC(N)=NS(N)(=O)=O)cs1 [Famotidine]
Marked response: 6.98

* * *

Test system: SARS-CoV-2
Experimental details: microbe, parasite or virus in culture
Assay type: cell-based
Test context: Severe acute respiratory syndrome coronavirus 2, Vero C1008, 48 h, read-out: Antiviral: IC50
Reported endpoint: IC50

| Compound | System under test | Reported endpoint | Observed |
| --- | --- | --- | --- |
| CCC(CC)COC(=O)[C@H](C)N[P@](=O)(OC[C@H]1O[C@@](C#N)(c2ccc3c(N)ncnn23)[C@H](O)[C@@H]1O)Oc1ccccc1 | SARS-CoV-2 | IC50 | 966 nM |

Then there is this compound:
Exam item: Could you share which IC50 value was measured for CCN(CCO)CCCC(C)Nc1ccnc2cc(Cl)ccc12 (centres unmarked) [Hydroxychloroquine] ?
Marked response: 1440 nM
